Test system: COLO 205 colon
Experiment: NCI-60 one-dose screen, 48 h (100 = growth as untreated, 0 = no growth, -100 = all killed)
Conditions: 10 µM unless noted
Method: Cells are grown in 96 well plates and exposed to the test compound for 48 hours. Compounds are tested at a single concentration, which is 10^-5 M for most compounds. The reported endpoint is percent growth (GI% or GIPRCNT), where numbers from 0 - 100% represent growth inhibition, and numbers from -100% - 0 represent cell death. For example, a value of 40 represents 60% growth inhibition. A value of 0 means no net growth occurred over the course of the experiment. […]
About 83,000 compounds went through this panel and 20% of them were active in at least one assay; those are over-represented in the sample as a whole.
measuredQuantity: growth (%)

{"columns": ["compound", "measuredQuantity", "units", "val"],
 "data": [
  ["COC(=O)c1ccc(NC(=O)CSc2nc(-c3ccc(F)cc3)nc3ccccc23)cc1", "growth", "%", 93.8],
  ["COCCOCCOCc1n(Cc2ccc3ccccc3c2)c2ccccc2[n+]1Cc1ccc2ccccc2c1", "growth", "%", -60.7],
  ["CCOC(=O)/C=C1\\SC(=Nc2ccc(C#N)cc2)N(CCN2C(=O)/C(=C/C(=O)OCC)SC2=Nc2ccc(C#N)cc2)C1=O", "growth", "%", 18.6],
  ["Cc1cccc(C)c1Nc1nnc(-c2ccc(F)cc2)o1", "growth", "%", 100],
  ["Cc1cc2ccccc2c[n+]1CC(=O)c1ccc(-c2ccccc2)cc1", "growth", "%", 32.5],
  ["Cc1c(Cl)cccc1NC(=O)c1sc2nc3c(cc2c1N)CCCCC3", "growth", "%", 9.8],
  ["C[C@H]1[C@H](C)CC[C@]2(C(=O)OCCCC[P+](c3ccccc3)(c3ccccc3)c3ccccc3)CC[C@]3(C)C(=CC[C@@H]4[C@@]5(C)CC[C@H](OC(=O)C(Cl)Cl)C(C)(C)[C@@H]5CC[C@]43C)[C@H]12", "growth", "%", -84.9],
  ["O=C(/C(=C\\c1c(-c2ccccc2)[nH]c2ccccc12)S(=O)(=O)c1ccccc1)c1ccccc1", "growth", "%", 70.8],
  ["Cc1nc2sc(C(=O)Nc3cccc4ccccc34)c(N)c2cc1C(C)O (configuration not stated)", "growth", "%", -5.28],
  ["O=C(Nc1ccc(N=Cc2ccccc2O)cc1)NC1C=c2ccccc2=CC1 (configuration not stated)", "growth", "%", 117],
  ["COc1cc(C2=NN(C(C)=O)C(c3cccc(Nc4ccnc5cc(C(F)(F)F)ccc45)c3)C2)cc(OC)c1OC (configuration not stated)", "growth", "%", 50.3],
  ["COC(=O)c1ccc2c(c1)n(Cc1ccc3ccccc3c1)c[n+]2Cc1ccc2ccccc2c1", "growth", "%", 3.66]
]}

----------
Listed below: growth values for each entry.
test system: K-562 leukemia; assay: NCI-60 one-dose screen, 48 h (100 = growth as untreated, 0 = no growth, -100 = all killed); conditions: 10 µM unless noted
This is part of a sample that, as a whole, favours compounds with a hit. Of some 83,000 tested, about 20% had one in any assay.

{"columns": ["structureString", "systemTested", "units", "growth"],
 "data": [
  ["C#CC[C@@H]1C[C@]2(C)[C@H]3CC[C@@H]4[C@H]5[C@H](C(=C)C)CC[C@]5(C(=O)O)CC[C@@]4(C)[C@]3(C)CC[C@H]2C(C)(C)[C@H]1O", "K-562 leukemia", "%", 35.1],
  ["S=C(Nc1ccccc1)c1ccccn1", "K-562 leukemia", "%", 99.7],
  ["C#Cc1ccccc1NC(=O)c1sc2nc3c(cc2c1N)CCCCC3", "K-562 leukemia", "%", 90.5]
]}

----------
system: SW-620 colon; test: NCI-60 one-dose screen, 48 h (100 = growth as untreated, 0 = no growth, -100 = all killed); conditions: 10 µM unless noted
Compounds without any hit were thinned out: in the full panel of roughly 83,000, 20% have a hit.
Listed below: growth values for each entry.
measuredQuantity: growth (%)

{"columns": ["molecule", "units", "val"],
 "data": [
  ["CC(=O)OCC1SC(OC(C)=O)C(NC(=O)/C=C/CCl)C(OC(C)=O)C1OC(C)=O (stereo not drawn)", "%", 107],
  ["CCN1CCN(Cc2ccc(NC(=O)c3cccc(C#Cc4cccc5[nH]nc(N)c45)c3)cc2C(F)(F)F)CC1", "%", -76],
  ["COc1cc2c(cc1OC)C(Sc1ccc(Cl)cc1)c1c(nc(N)c(C#N)c1N)O2 (stereo not drawn)", "%", -63.1],
  ["CC1CCCN(CCCCCOc2ccc3oc4ccc(Cl)cc4c(=O)c3c2)C1 (stereo not drawn)", "%", 56.6],
  ["COC(=O)c1oc2c(C(=O)/C=C/c3ccc(OC)cc3)c(OCCCN3CCCCC3)ccc2c1C", "%", -17.9],
  ["O=C(Nc1nc(-c2ccccc2)cs1)c1cc(-c2ccc(Br)cc2)nc2ccccc12", "%", 51.6],
  ["N#Cc1ccc(N2Cc3cc(Cl)ccc3OC3=C2C(=O)N(Cc2ccc(F)cc2)C3=O)cc1", "%", -81],
  ["COc1cc2nc3c(=O)n(CCN(C)C)cnn3c(=O)c2cc1OC", "%", 97],
  ["CO[C@@]12C=C[C@@]34CCC(=O)N3c3ccccc3[C@@H](O1)C4C2", "%", 101],
  ["O=C1c2ccccc2C(=O)c2c1oc1c2c(=O)[nH]c2ccccc21", "%", 89.2],
  ["Cc1cccc(C)c1NCc1nnc(-c2ccco2)o1", "%", 93.8],
  ["COc1ccc(/C=C/C(=O)/C=C(/C=C/c2ccc(OC)c(OC)c2)OB(F)F)cc1OC", "%", -21.8],
  ["NC(=N\\N=C\\c1ccccc1O)/C(N)=N/N=C/c1ccccc1O", "%", 71.5],
  ["CC1=C(CCCOC(=O)NCCCl)C2=C(C)C3(CC3)[C@@](C)(O)C(=O)C2=C1", "%", 80.3],
  ["C=C(C)[C@@H]1CC[C@]2(C(=O)OCCCC[P+](c3ccccc3)(c3ccccc3)c3ccccc3)CC[C@]3(C)[C@H](CC[C@@H]4[C@@]5(C)CC[C@H](OC(=O)C(Cl)Cl)C(C)(C)[C@@H]5CC[C@]43C)[C@@H]12", "%", 0.909],
  ["COc1ccc(NC(=O)Nc2ccc(Nc3nc(C)cc(Nc4ccc(C)cc4)n3)cc2)cc1", "%", -62],
  ["CCCn1c2cc(OCc3cn(-c4ccc(Br)cc4)nn3)ccc2c2ccnc(C)c21", "%", 47.4],
  ["COc1ccc2c(c1)OC13Oc4cc(OC)ccc4C=C1CCCCC3=C2", "%", 90.7],
  ["O=C1CC23OC(C(O)c4ccccc4N12)C1C(c2ccccc2)=NOC13 (stereo not drawn)", "%", 29.2],
  ["CC(C)(C)c1ccc2oc(=O)n(SC(Cl)(Cl)Cl)c2c1", "%", 76.5],
  ["C=C(C)[C@@H]1CC[C@]2(C(=O)O)CC[C@]3(C)[C@H](CC[C@@H]4[C@@]5(C)C[C@@H](CC#Cc6ccccc6C)C(=O)C(C)(C)[C@@H]5CC[C@]43C)[C@@H]12", "%", 25.7],
  ["CCn1cc(C(=O)O)c(=O)c2cc(F)c(N3CCN(CC(=O)Nc4ccc(/C(C)=N/OC)cc4)CC3)cc21", "%", 110],
  ["C#CC[C@@H]1C[C@]2(C)[C@H]3CC[C@@H]4[C@H]5[C@H](C(=C)C)CC[C@]5(C(=O)O)CC[C@@]4(C)[C@]3(C)CC[C@H]2C(C)(C)[C@H]1O", "%", 33.1],
  ["COc1cc(/C=C/C(=O)/C=C/c2cc3ccc(Cl)cc3[nH]c2=O)ccc1O", "%", 29.7],
  ["COc1ccc2nc(-c3ccc(Cl)cc3)cc(C(=O)N3N=C(c4ccc(N)cc4)CC3c3ccccc3)c2c1 (stereo not drawn)", "%", 36],
  ["O=C(NCc1ccccc1)c1ccc2c(c1)NC(=O)[C@@H]1CCCN21", "%", 96.4],
  ["COc1cc(-c2csc(NC(=O)Nc3ccc(Cl)cc3)n2)cc(OC)c1OC", "%", 42.1],
  ["CCCCc1n(Cc2ccc3ccccc3c2)c2ccccc2[n+]1Cc1ccc2ccccc2c1", "%", -79.8],
  ["CCOc1ccc(C2N(c3cc(OC)c(OC)c(OC)c3)C(=O)C2(F)F)cc1 (stereo not drawn)", "%", 25.5],
  ["CC(=O)O[C@@H]1C[C@]2(C)[C@H]3[C@H](O)C[C@@H]4C5=CC(C)(C)CC[C@]5(C)CC[C@@]4(C)[C@]3(C)CC[C@H]2C(C)(C)[C@H]1O", "%", 98.7],
  ["NS(=O)(=O)c1ccc(-n2nc(-c3ccccc3)ccc2=O)cc1", "%", 108],
  ["COc1ccc(-c2nnc(N3CCN(C(=O)CN4CCN(c5ccccc5)CC4)CC3)nc2-c2ccc(OC)cc2)cc1", "%", 35.7],
  ["CSc1nc(-c2ccco2)c2c(N)[nH]nc2n1", "%", 111]
]}
